Protocol Text: Terminal volume of distribution in mouse at 1 mg/kg, iv
Assay type: ADME, organism-based
Parameters: dose 1 mg/kg, route intravenous
Assay Context: in vivo, read-out: Vz

>  <Smiles Input>
COc1ccc(-c2cccc(S(=O)(=O)N[C@H]3CC[C@H](n4cc(F)c(N)nc4=O)C3)c2)cc1

>  <Reading Unit>
L/kg

>  <Vd>
4.4

$$$$
>  <Smiles Input>
Cc1cc(Cl)ccc1-c1cccc(S(=O)(=O)N[C@H]2CC[C@H](n3cc(F)c(N)nc3=O)C2)c1

>  <Reading Unit>
L/kg

>  <Vd>
3

$$$$
>  <Smiles Input>
COc1ccc(-c2cccc(C(=O)N[C@H]3CC[C@H](n4cc(F)c(N)nc4=O)C3)c2)cc1

>  <Reading Unit>
L/kg

>  <Vd>
1.3

$$$$
